ASSAYED_TARGET: GABAA central benzodiazepine receptor
PROTOCOL_DETAILS: Benzodiazepine binding assay ((3H)-flunitrazepam displacement)
CONDITION_CONTEXT: read-out: BZ binding assay (IC50); rat whole brain (except cerebellum), 1 nM (3H)-flunitrazepam, 60 minutes at 25° C.; 3-concentration dose response curve
OBSERVED_PROPERTY: IC50

Known results for molecules:
CN1CCN(c2ccc3c4nn(-c5ccccc5)c(=O)c-4c[nH]c3c2F)CC1 [48b]    > 1 µM
CN1CCN(c2cc3[nH]cc4c(=O)n(-c5ccsc5)nc-4c3cc2F)CC1 [28q]    > 1 µM
O=c1c2c[nH]c3cc(N4CCNCC4)c(F)cc3c-2nn1-c1ccccc1 [28a]    < 1 µM
CC1CC(C)CN(c2cc3[nH]cc4c(=O)n(-c5ccccc5)nc-4c3cc2F)C1 (centres unmarked) [28e]    < 1 µM
O=c1c2c[nH]c3ccc(N4CCOCC4)cc3c-2nn1-c1ccccc1F [19e]    < 1 µM

Documented IC50 of CN1CCN(c2c(F)cc3c4nn(-c5ccccc5)c(=O)c-4c[nH]c3c2F)CC1 [44b] : < 1 µM

Documented IC50 of CN1CCN(c2cc(C(F)(F)F)cc3c4nn(-c5ccccc5)c(=O)c-4c[nH]c23)CC1 [52b] : < 1 µM

Documented IC50 of O=c1c2c[nH]c3ccc(N4CCOCC4)cc3c-2nn1-c1ccccn1 [19c] : < 1 µM
